- Test system: SW-620 colon
- Assay comment: NCI tumour cell line growth inhibition, 48 h; in the data active means GI50 below about 0.43 µM; inactive means the rest
Form entry, call: pick from yes for active, no for inactive

[[record]]
compound = "C[C@@H]1CN2[C@H]3[C@@H]1CC[C@]31CCC(=O)O[C@]1(C)[C@@H]1CC[C@H]3CCC=C3[C@@H]12"
assigned_class = "no"

[[record]]
compound = "CCCCCCC1N=C(N)N=C(N)N1c1ccc(Cl)cc1 (stereo not drawn)"
assigned_class = "no"

[[record]]
compound = "COc1ccc(C2C3=C(COC3=O)N(CCO)c3cc4c(cc32)OCCO4)cc1OC (stereo not drawn)"
assigned_class = "no"

[[record]]
compound = "C=C=[CH][Sn]([c]1ccccc1)([c]1ccccc1)[c]1ccccc1"
assigned_class = "no"

[[record]]
compound = "CCS/C(Nc1ccccc1)=C(\\C#N)C(=O)N/N=C/c1ccc(Cl)cc1Cl"
assigned_class = "no"


Q) Check the results log: what was the call for CCNCCNc1cc(-c2cccc(C(F)(F)F)c2)c(C#N)c2nc3ccccc3n12 ?
A) yes

Q) Check the results log: what was the call for Cc1c(N2C(=O)/C(=C\c3ccc(N(C)C)cc3)N=C2c2ccccc2)c(=O)n(-c2ccccc2)n1C ?
A) no

Q) Check the results log: what was the call for Brc1ccc(Br)nn1 ?
A) no

Q) Check the results log: what was the call for CCN(CC)c1ccc2nc3c4ccccc4c(=NC(=O)c4ccccc4-c4c5ccc(N(CC)CC)cc5[o+]c5cc(N(CC)CC)ccc45)cc-3oc2c1 ?
A) no

Q) Check the results log: what was the call for CC(C)CNc1nc(N=[N+]=[N-])nc(NCC(C)C)n1 ?
A) no
